pKi: −log10 of the molar value.
// compounds with pKi on Metabotropic glutamate receptor 5 (Rattus norvegicus), multi-source literature

[
  {
    "SMILES_INPUT": "N#Cc1cccc(S(=O)(=O)c2cnc3cc(F)ccc3c2-c2cccc(F)c2)c1",
    "ASSAY_VALUE": "> 6.70"
  },
  {
    "SMILES_INPUT": "CNC(=O)Nc1c(S(=O)(=O)c2ccc(Cl)cc2)sc2ncccc12",
    "ASSAY_VALUE": "< 5.82"
  },
  {
    "SMILES_INPUT": "O=C(c1ccc(Cl)c(C#Cc2ccccn2)c1)N1Cc2cccnc2C1",
    "ASSAY_VALUE": 8.52
  },
  {
    "SMILES_INPUT": "Cc1cccc(S(=O)(=O)c2sc3ncccc3c2-c2ccc(F)cc2)c1",
    "ASSAY_VALUE": "> 6.30"
  },
  {
    "SMILES_INPUT": "O=C(c1ccc(C(F)(F)F)c(C#Cc2ccccn2)c1)N1CCc2ncc(Br)cc2C1",
    "ASSAY_VALUE": 9.00
  }
]

Incoming: Enter recorded pKi with Metabotropic glutamate receptor 5 (Rattus norvegicus) for Cc1cc(C)cc(S(=O)(=O)c2cnc3ccc(C)cc3c2N2CCC(C)CC2)c1 here.
Outgoing: 6.30 to 6.70

Incoming: Enter recorded pKi with Metabotropic glutamate receptor 5 (Rattus norvegicus) for Cc1ccc(S(=O)(=O)c2cnc3cc4c(cc3c2N2CCOCC2)OCCO4)cc1 here.
Outgoing: < 6.30

Incoming: Enter recorded pKi with Metabotropic glutamate receptor 5 (Rattus norvegicus) for Cc1ccc(S(=O)(=O)c2cnc3ccccc3c2Nc2ccc(F)cc2)cc1 here.
Outgoing: < 6.30

Incoming: Enter recorded pKi with Metabotropic glutamate receptor 5 (Rattus norvegicus) for O=C(c1ccc(Cl)c(C#Cc2ccccn2)c1)N1CCc2ncccc2C1 here.
Outgoing: 8.40
